# cGMP response rel. to 1 uM CNP22; 10 nM peptide, NIH3T3 cells values compiled below
system-tested: T1, NPR-B (natriuretic peptide receptor B), murine, expressed endogenously on NIH3T3 cells (murine, UniProt Q6VVW5 17-1047)
T1 sequence (looked up): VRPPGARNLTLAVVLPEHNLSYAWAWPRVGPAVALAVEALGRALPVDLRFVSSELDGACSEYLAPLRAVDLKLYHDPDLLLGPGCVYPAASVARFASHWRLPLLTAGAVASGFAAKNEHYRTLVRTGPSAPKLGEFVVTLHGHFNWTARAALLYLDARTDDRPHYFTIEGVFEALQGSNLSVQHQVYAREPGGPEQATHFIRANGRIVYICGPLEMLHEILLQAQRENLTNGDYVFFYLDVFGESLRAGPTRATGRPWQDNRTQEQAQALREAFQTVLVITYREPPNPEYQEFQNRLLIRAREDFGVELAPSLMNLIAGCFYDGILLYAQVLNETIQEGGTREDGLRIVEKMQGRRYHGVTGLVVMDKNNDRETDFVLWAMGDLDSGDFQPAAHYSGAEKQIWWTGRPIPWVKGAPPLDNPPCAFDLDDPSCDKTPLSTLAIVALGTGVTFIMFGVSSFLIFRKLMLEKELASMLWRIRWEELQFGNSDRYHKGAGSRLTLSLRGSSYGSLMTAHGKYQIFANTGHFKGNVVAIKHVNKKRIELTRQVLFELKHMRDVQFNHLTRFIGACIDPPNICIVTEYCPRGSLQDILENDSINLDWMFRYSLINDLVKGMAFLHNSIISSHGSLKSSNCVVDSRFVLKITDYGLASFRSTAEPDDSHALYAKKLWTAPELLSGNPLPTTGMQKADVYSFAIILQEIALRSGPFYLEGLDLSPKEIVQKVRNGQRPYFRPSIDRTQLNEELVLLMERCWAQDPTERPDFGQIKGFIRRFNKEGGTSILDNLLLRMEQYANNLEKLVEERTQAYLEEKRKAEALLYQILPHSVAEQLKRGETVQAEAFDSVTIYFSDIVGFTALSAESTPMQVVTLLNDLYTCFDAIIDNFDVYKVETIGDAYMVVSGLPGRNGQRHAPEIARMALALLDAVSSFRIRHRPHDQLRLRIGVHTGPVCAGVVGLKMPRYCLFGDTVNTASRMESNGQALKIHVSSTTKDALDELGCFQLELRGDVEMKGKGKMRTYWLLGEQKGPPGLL
test-description: cell-based or functional assay
Where no end group is shown, it is not given here. PEO12 = PEO12, 0.6 kDa, monodispersed; PEO24 = PEO24, 1.2 kDa, monodispersed
assay-readout: cGMP response rel. to 1 uM CNP22; 10 nM peptide, NIH3T3 cells

>>> value_observed("{PEG 1 kDa}-GLSKGCFGLKLDRIGSMSGLGC (ends and bridges not checked; also: PEG polydispersed) [PEG1K-CNP22]")
"15 rel. to 1 uM CNP22 (100)"
>>> value_observed("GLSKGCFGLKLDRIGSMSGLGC (not fully specified (N-terminus); ends and bridges not checked) [(PEO12)-Biotin-CNP22]")
"19 rel. to 1 uM CNP22 (100)"
>>> value_observed("PEO12-GLSRGCFGLKLDRIGSMSGLGC (ends and bridges not checked) [PEO12-CNP22, K4R]")
"13 rel. to 1 uM CNP22 (100)"
>>> value_observed("PEO24-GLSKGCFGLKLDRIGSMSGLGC (ends and bridges not checked) [PEO24-CNP22]")
"8 rel. to 1 uM CNP22 (100)"
>>> value_observed("{PEO4‑(PEO12)3 (branched)}-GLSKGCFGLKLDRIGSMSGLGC (ends and bridges not checked) [PEO4-(PEO12)3 (branched)-CNP22]")
"17 rel. to 1 uM CNP22 (100)"
